Reported TGI is given for each of the following molecules.
# System: NCI-H23 lung
# protocol details: NCI tumour cell line growth inhibition, 48 h
Where a SMILES comes first, the peptide text is derived from it. [ ]: non-standard residue; d: D form. The star is where a group is joined. ξ: configuration not given here. ξNMeF = CNC(Cc1ccccc1)C(=O)O; NMeV = CN[C@H](C(=O)O)C(C)C; Boc = CC(C)(C)OC(=O)*; OBn = c1ccc(CO*)cc1

| molecule | reported |
| --- | --- |
| Cc1nc2sc(C(=O)Nc3cccc(Br)c3C)c(N)c2cc1C(O)c1ccccc1 (centres undefined) | 15 µM |
| CC(C)[C@@H](C(=O)N(C)[C@H](C(=O)N1CCC[C@H]1C(=O)OCc1ccccc1)C(C)C)N(C)C(=O)C(Cc1ccccc1)N(C)C(=O)[C@H](NC(=O)OC(C)(C)C)C(C)C (some centres undefined) (Boc-[dV][ξNMeF][NMeV][NMeV]P-OBn) | > 100 µM |
| C/C(O)=C(\C=N\C(=S)N=Nc1c(O)[nH]c2ccccc12)C(=O)Nc1ccccc1C | > 100 µM |

Test item Cn1c(CCCC(=O)O)nc2cc(N(CCCl)CCCl)ccc21 ; NCI-H23 lung; reported TGI was > 100 µM
